Values compiled from patent US9688764B2.

- Test system: HEK293 (non-expressing parental cells)
- assay-method-text: FACS cell surface binding
measured-endpoint: FACS Cell Binding (Fold Above Background)
State the value with its unit after it.

Ask | Value lookup for FACS Cell Binding (Fold Above Background); key = H1H6762P: anti-PRLR antibody, human IgG1 Fc; HCVR/LCVR SEQ ID NOs 2/10 (antibody, V domains shown, human IgG1 Fc) VH: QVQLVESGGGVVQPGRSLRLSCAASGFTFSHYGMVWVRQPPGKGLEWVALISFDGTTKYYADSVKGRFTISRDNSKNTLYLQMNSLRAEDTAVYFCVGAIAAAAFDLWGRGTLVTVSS VL: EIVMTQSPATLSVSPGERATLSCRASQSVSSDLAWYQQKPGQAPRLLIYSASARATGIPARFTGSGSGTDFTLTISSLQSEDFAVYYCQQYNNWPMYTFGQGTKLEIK
Reply | 1 Fold Above Background
